Assay: Inhibition of beta-lactamase NDM1 (unknown origin) expressed in Escherichia coli BL21(DE3) using cefotaxime/nitrocefin as substrate by measuring substrate hydrolysis by spectrophotometric analysis
observable: Ki (µM)
Value expressed in µM; do not type the unit.

Looking up COc1ccc(O)c(-c2n[nH]c(=S)n2/N=C/c2ccccc2C(=O)O)c1 , I see its Ki listed as 27

Looking up Oc1ccc(/C=N/n2c(-c3cccc(C(F)(F)F)c3)n[nH]c2=S)c(O)c1 , I see its Ki listed as 32.5

Looking up S=c1[nH]nc(-c2ccc(OCc3ccccc3)cc2)n1/N=C/c1ccc(OCc2ccccc2)cc1 , I see its Ki listed as 3.2

Looking up Oc1ccc(/C=N/n2c(-c3cccc(F)c3)n[nH]c2=S)c(O)c1 , I see its Ki listed as 11.7

Looking up Oc1ccc(/C=N/n2c(-c3ccccc3-c3ccccc3)n[nH]c2=S)c(O)c1 , I see its Ki listed as 6.4
